tested on: Escherichia coli TOP10; assay: shrunken log2 fold change of peptide-encoding DNA abundance (4.5 h post-induction vs induction); higher = less antimicrobial activity (less host growth inhibition); conditions: time post-induction: 4.5 h; library: site-saturation at positions 5, 18, 19, 20;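 note: peptides expressed intracellularly from a pBAD plasmid library in pooled LB shake-flask culture, induced with 0.3% L-arabinose, DNA abundance read by NGS, three biological replicates, DESeq2 with apeglm shrinkage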
We'd kindly ask you to apply these shrunken log2 fold change classes: low = under -0.1, mid = from -0.1 up to 0.07, high = 0.07 and over

RRIRARPPRLPRPRPRPQIPPRP :: low

[Q] Band assignment needed for RRIRSRPPRLPRPRPRPGGMPRP please.
[A] high

[Q] Please do the same for RRIRQRPPRLPRPRPRPMVPPRP as well.
[A] mid

[Q] Lookup RRIRQRPPRLPRPRPRPYNLPRP
[A] mid

[Q] And what about the sequence RRIRRRPPRLPRPRPRPNGHPRP ?
[A] high

[Q] Next: RRIRARPPRLPRPRPRPWPMPRP
[A] high

[Q] // query: RRIRNRPPRLPRPRPRPGQPPRP
[A] mid

[Q] Also, RRIRNRPPRLPRPRPRPEICPRP please.
[A] mid

[Q] Also RRIRNRPPRLPRPRPRPPRPPRP , if possible.
[A] high

[Q] What about this sequence? RRIRIRPPRLPRPRPRPVDIPRP
[A] low

[Q] Entry RRIRFRPPRLPRPRPRPWEIPRP please
[A] mid

[Q] One more sequence: RRIRRRPPRLPRPRPRPMDAPRP
[A] high

[Q] Follow-up entry: RRIRRRPPRLPRPRPRPIIRPRP
[A] mid

[Q] Also RRIRFRPPRLPRPRPRPYFKPRP , if possible.
[A] low

[Q] For RRIRYRPPRLPRPRPRPMDMPRP then?
[A] mid

[Q] Next record, please: RRIRGRPPRLPRPRPRPMMMPRP
[A] high

[Q] Queued: RRIRQRPPRLPRPRPRPDCMPRP
[A] mid

[Q] For RRIRARPPRLPRPRPRPTRPPRP then?
[A] high

[Q] Next sequence up: RRIRQRPPRLPRPRPRPVHCPRP
[A] low
